System: Shigella propagation in Caco2 cells
Assay: Inhibition of Shigella propagation in Caco2 cells assay
Assay type: cell-based, Shigella flexneri
Details: INCACO2CELLS, Caco-2
Binarize IC50 at 2 µM; below is YES, at or above is NO.

Sample answers from the record:
* c1ccc(-n2nnnc2-c2cnoc2-c2cccs2)cc1 | NO
* Cc1ccc(-n2cc(C(=O)c3cc(F)ccc3O)cc(C#N)c2=O)cc1 | YES
* Fc1ccc(-c2oncc2-c2nnnn2-c2ccccc2)cc1F | YES
* COc1ccc(CN(C)S(=O)(=O)c2nnc(NC(=O)c3cccc(Cl)c3)s2)cc1OC | NO
* Cc1cc(CNC(=O)CCc2c(C)nc3cc(O)nn3c2C)no1 | YES
* N#Cc1cc(C(=O)c2ccccc2O)cn(-c2ccc(Cl)cc2)c1=O | YES
* COc1ccc(N2CCN(c3nc4ncccc4o3)CC2)cc1 | NO
* Cc1ccccc1-c1c(C#N)c(N)nc(SCc2ccccc2)c1C#N | NO
* Cc1ccc(C2=NN(C3=NC(=O)C(CC(=O)Nc4ccccc4)S3)C(c3ccccc3)C2)cc1 (stereo not shown) | YES
* COc1ccc(-n2cc(C(=O)c3cc(C)ccc3O)cc(C#N)c2=O)cc1 | YES

Exercise: Take the compound COc1ccc2nc(NS(=O)(=O)c3cccc(C#N)c3)sc2c1 and say whether its IC50 is less than 2 µM.
Key: NO

Exercise: Take the compound CC(NC(=O)NC(C)c1cccs1)c1ccc2c(c1)OCCO2 (stereo not shown) and say whether its IC50 is less than 2 µM.
Key: NO

Exercise: Take the compound COc1ccc(S(=O)(=O)Nc2ccc(Cl)cc2F)cc1[N+](=O)[O-] and say whether its IC50 is less than 2 µM.
Key: NO

Exercise: Take the compound Fc1ccc(-c2oncc2-c2nnnn2-c2ccccc2)c(F)c1 and say whether its IC50 is less than 2 µM.
Key: NO

Exercise: Take the compound CC(C)c1noc2ncc(C(=O)c3ccccc3O)cc12 and say whether its IC50 is less than 2 µM.
Key: YES

Exercise: Take the compound CCc1cccc(CC)c1NC(=O)c1c(-c2ccccc2)noc1C and say whether its IC50 is less than 2 µM.
Key: YES

Exercise: Take the compound COc1ccc(-n2cc(C(=O)c3cc(Cl)ccc3O)cc(C#N)c2=O)cc1 and say whether its IC50 is less than 2 µM.
Key: NO

Exercise: Take the compound Cc1c(-c2cccs2)[nH]c2c(C#N)cnn2c1=O and say whether its IC50 is less than 2 µM.
Key: NO

Exercise: Take the compound Cc1nn(-c2ccccc2)c(C)c1S(=O)(=O)Nc1nc2c(s1)CCCC2 and say whether its IC50 is less than 2 µM.
Key: NO

====

Tested on: S. flexneri 2457T-nl in THP-1 macrophages
Assay: Shigella intra-macrophage survival dose-response assay (luciferase readout)
Conditions: Shigella flexneri, THP-1, read-out: Shigella Intra-macrophage Survival IC50
pIC50: −log10 of the molar value.
Rule: pIC50 of 7 or more gives rule met; anything lower gives rule not met.

Sample answers from the record:
* CO/N=C(\C(=O)N[C@@H]1C(=O)N2C(C(=O)O)=C(CSc3nc(=O)c(=O)[nH]n3C)CS[C@H]12)c1csc(N)n1 [Ceftriaxone, ceftriaxone, reference compound] | rule met
* CC1(C)S[C@@H]2[C@H](/N=C/N3CCCCCC3)C(=O)N2[C@H]1C(=O)O [Mecillinam, mecillinam, reference compound] | rule not met
* CC(C)(C)C(=O)OCOC(=O)[C@@H]1N2C(=O)[C@@H](/N=C/N3CCCCCC3)[C@H]2SC1(C)C | rule not met

From here, focus on the item given below.
Exercise: Record O=C(O)c1cn(C2CC2)c2cc(N3CCNCC3)c(F)cc2c1=O [Ciprofloxacin, ciprofloxacin, reference compound] ; criterion: pIC50 no lower than 7. Met?
Key: rule met

====

Target: Nano-Luc reporter (S. flexneri 2457T-nl reporter strain) (Oplophorus gracilirostris, UniProt Q9GV45, A31E/A60N/A81I/F95D/I117V/K70R/L54V/L99Q/M102K/N193R/P142E/Q151K/Q38R/Q45L/V71I/Y165I)
Construct: expressed in transfected cells; host or cells: Shigella flexneri serotype 2a strain 2457T carrying plasmid pMK-RQ-nl
Sequence (Q9GV45 28-196 with tags or gaps with the stated changes limits assumed): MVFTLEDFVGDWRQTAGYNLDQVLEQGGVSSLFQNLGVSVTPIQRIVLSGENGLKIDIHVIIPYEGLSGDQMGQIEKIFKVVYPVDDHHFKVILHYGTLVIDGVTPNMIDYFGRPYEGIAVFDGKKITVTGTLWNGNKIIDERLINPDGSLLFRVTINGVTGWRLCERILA
Assay: Nano-Luc inhibition (assay readout interference)
Format: cell-based
Binarize IC50 at 10 µM; below is T, at or above is F.

* Cc1ccc(C2=NN(C3=NC(=O)C(CC(=O)Nc4ccccc4)S3)C(c3ccccc3)C2)cc1 (stereo not drawn) | F
* N#Cc1cc(C(=O)c2ccccc2O)cn(-c2ccc(Cl)cc2)c1=O | T
* N#Cc1cc(C(=O)c2ccccc2O)cn(-c2ccccn2)c1=O | F
* Cc1ccc(-n2cc(C(=O)c3cc(C)ccc3O)cc(C#N)c2=O)cc1 | F
* COc1ccc(CCNC(=O)c2nc(O)c3nnn(Cc4ccc(F)cc4)c3n2)cc1OC | F

Exercise: Take the compound Cc1noc2ncn(Cc3nc(Cc4ccccc4F)no3)c(=O)c12 and say whether its IC50 is less than 10 µM.
Key: F

Exercise: Take the compound COc1ccc(-n2nnnc2SC(C(=O)N(C)C)c2ccccc2)cc1 (stereo not drawn) and say whether its IC50 is less than 10 µM.
Key: T

Exercise: Take the compound c1ccc(-n2nnnc2-c2cnoc2-c2cccs2)cc1 and say whether its IC50 is less than 10 µM.
Key: T

Exercise: Take the compound Cc1nn(-c2ccccc2)c(C)c1S(=O)(=O)Nc1nc2c(s1)CCCC2 and say whether its IC50 is less than 10 µM.
Key: T

====

Biological target: S. flexneri 2457T-nl in THP-1 macrophages
Assay: Shigella intra-macrophage survival dose-response assay (luciferase readout)
Settings: read-out: Shigella Intra-macrophage Survival IC50; commercially available antibiotics, luciferase assay
Measured attribute: IC50 (nM)
// return numeric value only (unit: nM, not printed)

Exercise: Please tell me: IC50 of COc1ccc(-c2ccn(CC[C@](C)(C(=O)NO)S(C)(=O)=O)c(=O)c2)c(F)c1 [PF-5081090, reference compound] , system S. flexneri 2457T-nl in THP-1 macrophages?
Key: 60

====

Target: Nano-Luc reporter (S. flexneri 2457T-nl reporter strain) (Oplophorus gracilirostris, UniProt Q9GV45, A31E/A60N/A81I/F95D/I117V/K70R/L54V/L99Q/M102K/N193R/P142E/Q151K/Q38R/Q45L/V71I/Y165I)
Construct: expressed in transfected cells; host or cells: Shigella flexneri serotype 2a strain 2457T carrying plasmid pMK-RQ-nl
Assay: Nano-Luc inhibition (assay readout interference)
Format: cell-based
Details: read-out: Nano-Luc interference IC50; S. flexneri 2457T-nl reporter strain in MH medium, 18 hours
Property: pIC50; scope: individual compounds
pIC50 field: float, defined as -log10 of concentration (mol/L).

Exercise: Query (compound): CN(C(=O)Cc1cccs1)C1(C(=O)NC2CCCCC2)CCCCC1 ; field requested: pIC50
Key: 5.42

Exercise: Query (compound): O=S(=O)(Nc1ccc(F)cc1C(F)(F)F)c1ccc(-c2cccs2)s1 ; field requested: pIC50
Key: 5.51

====

Molecular target: Nano-Luc reporter (S. flexneri 2457T-nl reporter strain) (Oplophorus gracilirostris, UniProt Q9GV45, A31E/A60N/A81I/F95D/I117V/K70R/L54V/L99Q/M102K/N193R/P142E/Q151K/Q38R/Q45L/V71I/Y165I)
Construct: expressed in transfected cells; host or cells: Shigella flexneri serotype 2a strain 2457T carrying plasmid pMK-RQ-nl
Experiment: Nano-Luc inhibition (assay readout interference)
Assay type: cell-based
Measured attribute: pIC50
pIC50 field: float, defined as -log10 of concentration (mol/L).

Consider the following illustrative entries.
• COc1ccc(CN(C)S(=O)(=O)c2nnc(NC(=O)c3cccc(Cl)c3)s2)cc1OC = 5.34
• CCN(C(=O)Cn1c(-c2nonc2N)nc2ccccc21)c1ccccc1 = 5.29
• Cc1cc(CNC(=O)CCc2c(C)nc3cc(O)nn3c2C)no1 = 5.77
• Fc1ccc(-c2oncc2-c2nnnn2-c2ccccc2)c(F)c1 = 5.08
• COc1ccc2nc(NS(=O)(=O)c3cccc(C#N)c3)sc2c1 = 5.02

Okay, now this compound:
Exercise: Query (compound): Fc1ccc(-c2oncc2-c2nnnn2-c2ccccc2)cc1F ; field requested: pIC50
Key: 5.31

====

Property: pIC50; scope: individual molecules
Target: Nano-Luc reporter (S. flexneri 2457T-nl reporter strain) (Oplophorus gracilirostris, UniProt Q9GV45, A31E/A60N/A81I/F95D/I117V/K70R/L54V/L99Q/M102K/N193R/P142E/Q151K/Q38R/Q45L/V71I/Y165I)
Construct: expressed in transfected cells; host or cells: Shigella flexneri serotype 2a strain 2457T carrying plasmid pMK-RQ-nl
Test: Nano-Luc inhibition (assay readout interference)
Format: cell-based
pIC50 field: float, defined as -log10 of concentration (mol/L).

- CCOc1ccc(-n2cc(C(=O)c3cc(F)ccc3O)cc(C#N)c2=O)cc1: 4.30
- O=C(CN1CCc2ccccc2C1)Nc1cnccc1C(=O)O: 5.52
- O=S(=O)(Nc1ccccc1C(F)(F)F)c1ccc(-c2ccc(F)cc2)s1: 5.52
- COc1ccc(N2CCN(c3nc4ncccc4o3)CC2)cc1: 4.55
- CCc1cccc(CC)c1NC(=O)c1c(-c2ccccc2)noc1C: 5.92

Exercise: Query (molecule): N#Cc1cc(C(=O)c2ccccc2O)cn(C2CCCC2)c1=O ; field requested: pIC50
Key: 4.21

Exercise: Query (molecule): Cc1c(-c2cccs2)[nH]c2c(C#N)cnn2c1=O ; field requested: pIC50
Key: 6.11

Exercise: Query (molecule): Cc1ncccc1Oc1ncc(Cl)cc1S(=O)(=O)Nc1cccc(Cl)c1 ; field requested: pIC50
Key: 4.19

Exercise: Query (molecule): COc1ccc(-n2cc(C(=O)c3cc(C)ccc3O)cc(C#N)c2=O)cc1 ; field requested: pIC50
Key: 4.57
